Molecular target: AMPA receptor
Test: [3H]CNQX binding test (AMPA-receptor binding)
Design: species or system rat
Details: Table 2 parent compounds; rat; read-out: [3H]CNQX IC50 AMPA receptor binding, rat
measurement-type: IC50 (nM)

molecule	subject-of-test	measurement-type	recorded-result
CS(=O)(=O)Nn1c(=O)[nH]c2cc(C(F)(F)F)c(-n3cccc3)cc2c1=O [Example 8.0]	AMPA receptor	IC50	162

(P) CC(C)n1nccc1-c1cc2c(=O)n(NS(C)(=O)=O)c(=O)[nH]c2cc1C(F)F [Example 6.0]
(Q) CCC(O)c1cc2c(=O)n(NS(C)(=O)=O)c(=O)[nH]c2cc1C(F)(F)F (stereo not drawn) [Example 12.0]
Query block: Min IC50? P | Q Respond using the label that marks the chosen record.
Result block: P

----------
Target: AMPA receptor
Test: [3H]CNQX binding test (AMPA-receptor binding)
Parameters: species or system rat
Conditions: Table 1A parent compounds; AMPA-receptor binding as described for Table 2; read-out: IC50
pIC50: −log10 of the molar value.
measurement-type: pIC50

For orientation, consider the following solved cases.
compound	measurement-type	recorded-result
COCCn1nccc1-c1cc2c(=O)n(NS(C)(=O)=O)c(=O)[nH]c2cc1C(F)(F)F	pIC50	6.51
CS(=O)(=O)Nn1c(=O)[nH]c2cc(C(F)(F)F)c(C3CCOC3)cc2c1=O (stereo not drawn)	pIC50	6.66
CCCOC(CC)c1cc2c(=O)n(NS(C)(=O)=O)c(=O)[nH]c2cc1C(F)(F)F (stereo not drawn)	pIC50	6.28
Cn1nccc1-c1cc2c(=O)n(NS(C)(=O)=O)c(=O)[nH]c2cc1C(C)(F)F	pIC50	6.24
CC(OCC(F)(F)F)c1cc2c(=O)n(NS(C)(=O)=O)c(=O)[nH]c2cc1C(F)(F)F (stereo not drawn)	pIC50	5.95
CC(OCc1ccccc1)c1cc2c(=O)n(NS(C)(=O)=O)c(=O)[nH]c2cc1C(F)(F)F (stereo not drawn)	pIC50	6.11
CC(C)OC(C)c1cc2c(=O)n(NS(C)(=O)=O)c(=O)[nH]c2cc1C(F)(F)F (stereo not drawn)	pIC50	6.49
CC(OC1CCCC1)c1cc2c(=O)n(NS(C)(=O)=O)c(=O)[nH]c2cc1C(F)(F)F (stereo not drawn)	pIC50	6.27

(I) COC(c1cc2c(=O)n(NS(C)(=O)=O)c(=O)[nH]c2cc1C(F)(F)F)C(C)C (stereo not drawn)
(II) CCC(OC(C)C)c1cc2c(=O)n(NS(C)(=O)=O)c(=O)[nH]c2cc1C(F)(F)F (stereo not drawn)
Query block: Would you let me know which has the greater pIC50 value, I or II ? Respond using the label that marks the chosen record.
Result block: II

----------
Target: AMPA receptor
Assay: [3H]CNQX binding test (AMPA-receptor binding)
Design: species or system rat
Settings: Table 1A parent compounds; AMPA-receptor binding as described for Table 2; read-out: IC50
pIC50: −log10 of the molar value.
measurement-type: pIC50

For orientation, consider the following solved cases.
molecule	subject-of-test	pIC50
CS(=O)(=O)Nn1c(=O)[nH]c2cc(C(F)(F)F)c(-c3ccnn3O)cc2c1=O	AMPA receptor	6.85
CCOC(C)c1cc2c(=O)n(NS(C)(=O)=O)c(=O)[nH]c2cc1C(F)(F)F (centres unmarked)	AMPA receptor	6.46
CC(F)c1cc2[nH]c(=O)n(NS(C)(=O)=O)c(=O)c2cc1-c1ccnn1C (centres unmarked)	AMPA receptor	6.15
CS(=O)(=O)Nn1c(=O)[nH]c2cc(C(F)(F)F)c(C3CCCCO3)cc2c1=O (centres unmarked)	AMPA receptor	5.97
CC(C)c1cc2[nH]c(=O)n(NS(C)(=O)=O)c(=O)c2cc1C1CCOC1 (centres unmarked)	AMPA receptor	5.66

(a) CS(=O)(=O)Nn1c(=O)[nH]c2cc(C(F)(F)F)c(-c3ccn[nH]3)cc2c1=O
(b) CC(C)COC(C)c1cc2c(=O)n(NS(C)(=O)=O)c(=O)[nH]c2cc1C(F)(F)F (centres unmarked)
(c) CC(F)c1cc2[nH]c(=O)n(NS(C)(=O)=O)c(=O)c2cc1-c1ccnn1C(C)C (centres unmarked)
Query block: Rank by pIC50 (largest to smallest). Return value: ordered labels per request.
Result block: c, a, b
